- TEST SYSTEM: Chymotrypsin, from human pancreas (human, UniProt P17538 19-263)
- Sequence (P17538 19-263): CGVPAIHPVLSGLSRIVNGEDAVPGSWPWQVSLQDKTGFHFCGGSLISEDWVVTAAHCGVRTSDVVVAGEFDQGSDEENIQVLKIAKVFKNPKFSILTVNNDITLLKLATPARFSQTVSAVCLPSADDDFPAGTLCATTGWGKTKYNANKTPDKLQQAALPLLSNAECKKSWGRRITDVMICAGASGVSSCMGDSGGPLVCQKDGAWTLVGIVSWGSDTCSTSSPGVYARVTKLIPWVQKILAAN
- ASSAY INFO: cell-based or functional assay
Each record here notes measured % inhibition at 100 µM.
Numeric answer only, unit % assumed.

Task: Recorded % inhibition at 100 µM of FCTKSDPPICS (HELM PEPTIDE1{F.C.T.K.S.D.P.P.I.C.S.[dP].E}$PEPTIDE1,PEPTIDE1,2:R3-10:R3|PEPTIDE1,PEPTIDE1,1:R1-13:R2$$$V2.0; SMILES CC[C@H](C)[C@@H]1NC(=O)[C@@H]2CCCN2C(=O)[C@@H]2CCCN2C(=O)[C@H](CC(=O)O)NC(=O)[C@H](CO)NC(=O)[C@H](CCCCN)NC(=O)[C@H]([C@@H](C)O)NC(=O)[C@@H]2CSSC[C@H](NC1=O)C(=O)N[C@@H](CO)C(=O)N1CCC[C@@H]1C(=O)N[C@@H](CCC(=O)O)C(=O)N[C@@H](Cc1ccccc1)C(=O)N2) [Example 64] , please.
Output: 0

Further cases:
Task: Could you tell me which % inhibition at 100 µM is on file for FCTKSDPPICS (HELM PEPTIDE1{F.C.T.K.S.D.P.P.I.C.S.[dD].P}$PEPTIDE1,PEPTIDE1,2:R3-10:R3|PEPTIDE1,PEPTIDE1,1:R1-13:R2$$$V2.0; SMILES CC[C@H](C)[C@@H]1NC(=O)[C@@H]2CCCN2C(=O)[C@@H]2CCCN2C(=O)[C@H](CC(=O)O)NC(=O)[C@H](CO)NC(=O)[C@H](CCCCN)NC(=O)[C@H]([C@@H](C)O)NC(=O)[C@@H]2CSSC[C@H](NC1=O)C(=O)N[C@@H](CO)C(=O)N[C@H](CC(=O)O)C(=O)N1CCC[C@H]1C(=O)N[C@@H](Cc1ccccc1)C(=O)N2) [Example 46] ?
Output: 0
